Where do the numbers come from? From ChEMBL document CHEMBL3870322.

Target: Peroxisome proliferator-activated receptor gamma (Homo sapiens)
Sequence (P37231 whole entry): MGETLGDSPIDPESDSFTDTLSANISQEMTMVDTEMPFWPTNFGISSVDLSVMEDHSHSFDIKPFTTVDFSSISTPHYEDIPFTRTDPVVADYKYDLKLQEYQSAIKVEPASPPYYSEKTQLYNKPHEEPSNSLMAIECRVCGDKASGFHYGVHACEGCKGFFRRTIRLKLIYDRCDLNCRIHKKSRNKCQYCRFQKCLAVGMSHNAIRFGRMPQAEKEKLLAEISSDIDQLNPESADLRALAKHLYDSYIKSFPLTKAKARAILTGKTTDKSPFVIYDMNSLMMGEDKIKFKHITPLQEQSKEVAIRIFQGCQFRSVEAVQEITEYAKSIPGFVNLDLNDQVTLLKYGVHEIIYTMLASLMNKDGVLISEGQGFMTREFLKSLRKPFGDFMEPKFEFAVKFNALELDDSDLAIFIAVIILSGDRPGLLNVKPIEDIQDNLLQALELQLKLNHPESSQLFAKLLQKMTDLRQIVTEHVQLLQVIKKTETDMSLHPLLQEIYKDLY
Assay: Transactivation at Gal4 fused PPARgamma LBD (unknown origin) expressed in African green monkey COS7 cells after 42 hrs by luciferase assay
PROPERTY: log10 of EC50 (log10 of the value in µM)
For clarity, the numbers are log10 values of EC50 expressed in µM.

compound="CCCc1nc2c(C)cc(-c3nc4ccccc4n3C)cc2n1Cc1ccc(-c2ccccc2C(=O)O)cc1 [TELMISARTAN]" property="log10 of EC50" experimental_result=0.67
compound=CCCCCCCc1nc2ccccc2n1Cc1ccc(-c2ccccc2C(=O)O)cc1 property="log10 of EC50" experimental_result=-0.77
compound="CCCC1Sc2ccccc2N1Cc1ccc(-c2ccccc2C(=O)O)cc1 (stereo unspecified)" property="log10 of EC50" experimental_result=0.02

Prompt line: So what does the record say about log10 of EC50 for "CCCCCCc1nc2ccccc2n1Cc1ccc(-c2ccccc2C(=O)O)cc1" ?
Response line: -0.68

Prompt line: So what does the record say about log10 of EC50 for "CCCc1nc2ccccc2n1Cc1ccc(-c2ccccc2C#N)cc1" ?
Response line: 0.70

Prompt line: So what does the record say about log10 of EC50 for "CCCc1cc2ccccc2n1Cc1ccc(-c2ccccc2C#N)cc1" ?
Response line: 0.90

Prompt line: So what does the record say about log10 of EC50 for "CCCCCc1nc2ccccc2n1Cc1ccc(-c2ccccc2C(=O)O)cc1" ?
Response line: -0.40

###

Experiment: Growth inhibition of African green monkey COS7 cells at 50 uM after 72 hrs by crystal violet staining based assay
Assay type: cell-based, COS-7
Conditions: chlorocebus aethiops, cos-7, 72 h, 50 µM
PROPERTY: growth inhibition (GI)

Please review the following examples before continuing.
compound="CCc1ccc(CCOc2ccc(CC3SC(=O)NC3=O)cc2)nc1 (stereo unspecified)" experimental_result=Non-Toxic
compound=CCCc1nc2ccccc2n1Cc1ccc(-c2ccccc2C(=O)O)cc1 experimental_result=Non-Toxic
compound=CCCc1nc2ccccc2n1Cc1ccc(-c2ccc(C(=O)O)cc2)cc1 experimental_result=Non-Toxic
compound="CCCC1Sc2ccccc2N1Cc1ccc(-c2ccccc2C(=O)O)cc1 (stereo unspecified)" experimental_result=Non-Toxic
compound=CCCc1nc2ccccc2n1Cc1ccc(-c2cccc(C(=O)O)c2)cc1 experimental_result=Non-Toxic

Prompt line: So what does the record say about growth inhibition (GI) for "CCCCCc1nc2ccccc2n1Cc1ccc(-c2ccccc2C(=O)O)cc1" ?
Response line: Non-Toxic

Prompt line: So what does the record say about growth inhibition (GI) for "CCCCCCc1nc2ccccc2n1Cc1ccc(-c2ccccc2C(=O)O)cc1" ?
Response line: Non-Toxic

Prompt line: So what does the record say about growth inhibition (GI) for "CCCCCc1nc2ccccc2n1Cc1ccc(-c2ccccc2C(N)=O)cc1" ?
Response line: Toxic

###

Reported inhibition at 72 h, 50 µM is given for each of the following compounds.
Experiment: Growth inhibition of African green monkey COS7 cells at 50 uM after 72 hrs by crystal violet staining based assay
Type: cell-based, COS-7
Details: chlorocebus aethiops, COS7 cells; read-out: GI
Give the value in % but do not write % after it.

compound="CCCC1Sc2ccccc2N1Cc1ccc(-c2ccccc2C(N)=O)cc1 (stereo not given)" experimental_result=69.2
compound=CCCc1nc2ccccc2n1Cc1ccc(-c2ccccc2C(N)=O)cc1 experimental_result=33
compound=CCCCCCc1nc2ccccc2n1Cc1ccc(-c2ccccc2C(N)=O)cc1 experimental_result=92.8
compound=CCCc1nc2ccccc2n1Cc1ccc(-c2ccccc2C#N)cc1 experimental_result=61.9

In the following, a different compound is considered.
Prompt line: So what does the record say about inhibition at 72 h, 50 µM for "CCCc1cc2ccccc2n1Cc1ccc(-c2ccccc2C#N)cc1" ?
Response line: 36.8

###

Target: Peroxisome proliferator-activated receptor gamma (Homo sapiens)
Assay: Transactivation at Gal4 fused PPARgamma LBD (unknown origin) expressed in African green monkey COS7 cells after 42 hrs by luciferase assay
PROPERTY: pEC50
Just so you know, pEC50 here is -log10 of the concentration in molar units; reply with that number alone.

Please review the following examples before continuing.
smiles_record=CCCc1nc2ccccc2n1Cc1ccc(-c2ccccc2C(=O)O)cc1 experimental_result=5.38
smiles_record=CCCc1nc2ccccc2n1Cc1ccc(-c2ccccc2C(N)=O)cc1 experimental_result=5.50
smiles_record=CCCCCCc1nc2ccccc2n1Cc1ccc(-c2ccccc2C(N)=O)cc1 experimental_result=5.51

In the following, a different molecule is considered.
Prompt line: So what does the record say about pEC50 for "CCCc1nc2ccccc2n1Cc1ccc(-c2cccc(C(=O)O)c2)cc1" ?
Response line: 5.20

###

Assay: Growth inhibition of African green monkey COS7 cells at 50 uM after 72 hrs by crystal violet staining based assay
Type: cell-based, COS-7
Settings: chlorocebus aethiops, cos-7, 72 h, 50 µM
PROPERTY: growth inhibition (GI)

molecule=CCCCCCCc1nc2ccccc2n1Cc1ccc(-c2ccccc2C(=O)O)cc1 experimental_result=Non-Toxic
molecule="CCCc1nc2c(C)cc(-c3nc4ccccc4n3C)cc2n1Cc1ccc(-c2ccccc2C(=O)O)cc1 [TELMISARTAN]" experimental_result=Non-Toxic
molecule=CCCCCCCc1nc2ccccc2n1Cc1ccc(-c2ccccc2C(N)=O)cc1 experimental_result=Toxic
